Quick reference: pIC50 of the listed items.
biological target: Bcr/Abl fusion protein (Homo sapiens, UniProt P00519, E255K); experiment: Inhibition of imatinib-resistant BCR-ABL E255K mutant (unknown origin) expressed in mouse BA/F3 cells assessed as decrease in cell viability after 48 hrs by trypan blue exclusion assay
Sequence (P00519 whole entry E255K, looked up, the tested form may be a part): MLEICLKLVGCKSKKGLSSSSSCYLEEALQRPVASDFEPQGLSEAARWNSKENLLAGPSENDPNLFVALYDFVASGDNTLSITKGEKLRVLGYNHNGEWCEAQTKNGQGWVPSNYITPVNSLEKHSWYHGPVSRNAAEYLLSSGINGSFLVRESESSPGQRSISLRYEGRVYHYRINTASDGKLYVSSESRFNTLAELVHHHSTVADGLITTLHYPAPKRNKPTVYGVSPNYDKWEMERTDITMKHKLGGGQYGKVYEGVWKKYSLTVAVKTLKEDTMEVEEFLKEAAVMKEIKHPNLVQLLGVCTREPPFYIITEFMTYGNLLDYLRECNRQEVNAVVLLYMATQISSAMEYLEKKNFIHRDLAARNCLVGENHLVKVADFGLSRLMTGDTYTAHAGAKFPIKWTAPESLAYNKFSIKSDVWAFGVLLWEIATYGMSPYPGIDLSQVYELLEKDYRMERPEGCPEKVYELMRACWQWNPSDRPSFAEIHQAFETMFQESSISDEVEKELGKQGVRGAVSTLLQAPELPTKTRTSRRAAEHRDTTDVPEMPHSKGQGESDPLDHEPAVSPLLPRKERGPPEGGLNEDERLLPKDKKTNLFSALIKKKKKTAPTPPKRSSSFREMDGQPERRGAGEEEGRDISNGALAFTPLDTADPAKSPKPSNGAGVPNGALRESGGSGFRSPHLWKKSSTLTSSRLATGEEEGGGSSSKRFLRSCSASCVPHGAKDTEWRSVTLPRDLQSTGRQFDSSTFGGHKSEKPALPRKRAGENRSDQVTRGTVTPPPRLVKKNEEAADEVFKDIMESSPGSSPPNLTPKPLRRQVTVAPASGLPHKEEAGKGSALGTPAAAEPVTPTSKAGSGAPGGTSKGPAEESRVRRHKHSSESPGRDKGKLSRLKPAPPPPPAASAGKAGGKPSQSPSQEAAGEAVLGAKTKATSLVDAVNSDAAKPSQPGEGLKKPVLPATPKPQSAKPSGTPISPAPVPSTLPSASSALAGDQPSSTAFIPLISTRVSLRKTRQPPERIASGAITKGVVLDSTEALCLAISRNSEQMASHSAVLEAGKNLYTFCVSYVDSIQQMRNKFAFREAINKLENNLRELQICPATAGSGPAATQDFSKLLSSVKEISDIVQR
pIC50: −log10 of the molar value.
metricName: pIC50

molecule="C=CCNC1=C2C[C@@H](C)C[C@H](OC)[C@H](O)[C@@H](C)/C=C(\\C)[C@H](OC(N)=O)[C@@H](OC)/C=C\\C=C(/C)C(=O)NC(=CC1=O)C2=O [TANESPIMYCIN]" testresult="5.70 to 6.00"
molecule="COC1=C2C[C@@H](C)C[C@H](OC)[C@H](O)[C@@H](C)/C=C(\\C)[C@H](OC(N)=O)[C@@H](OC)/C=C\\C=C(/C)C(=O)NC(=CC1=O)C2=O [GELDANAMYCIN]" testresult="5.70 to 6.00"
